Tested on: E. coli DBM 3001
Type: cell-based
condition_context: DBM 3001, 25 h
Residues, ends and D or L forms follow the SMILES beside them. *: point of attachment. Lithocholoyl = C[C@H](CCC(=O)*)[C@H]1CC[C@H]2[C@@H]3CC[C@@H]4C[C@H](O)CC[C@]4(C)[C@H]3CC[C@]12C; Palmitoyl = CCCCCCCCCCCCCCCC(=O)*
observable: IC50

In the examples that follow, each entry is paired with its recorded IC50.
Tell me the measured IC50 of CCCCCCCCCCCCCCCC(=O)N[C@@H](CC(C)C)C(=O)N[C@H](C(=O)N[C@@H](CCCCN)C(=O)NCC(=O)N[C@@H](C)C(=O)N[C@@H](CCCNC(=N)N)C(N)=O)C(C)C [SHP-2.2, PAL-LVKGAR-NH2] (Palmitoyl-LVKGAR-NH2) , please. N / > 100.0 µg/mL

Then this molecule: CCCCCCCCCCCCCCCC(=O)N[C@@H](CC(C)C)C(=O)N[C@H](C(=O)N[C@@H](CCCCN)C(=O)N[C@@H](CCCNC(=N)N)C(=O)N[C@@H](C)C(=O)NCC(N)=O)C(C)C [SHP-1.2, PAL-LVKRAG-NH2] (Palmitoyl-LVKRAG-NH2) 100.0 µg/mL

Then this molecule: CC(C)C[C@H](NC(=O)[C@@H](NC(=O)CNC(=O)CC[C@@H](C)[C@H]1CC[C@H]2[C@@H]3CC[C@@H]4C[C@H](O)CC[C@]4(C)[C@H]3CC[C@]12C)C(C)C)C(=O)N[C@@H](CCCCN)C(=O)N[C@@H](CCCNC(=N)N)C(=O)N[C@@H](C)C(N)=O [SHP-3.3, LCA-GVLKRA-NH2] (Lithocholoyl-GVLKRA-NH2) N / > 100.0 µg/mL

Then this molecule: CC(C)C[C@H](NC(=O)CC[C@@H](C)[C@H]1CC[C@H]2[C@@H]3CC[C@@H]4C[C@H](O)CC[C@]4(C)[C@H]3CC[C@]12C)C(=O)N[C@H](C(=O)N[C@@H](CCCCN)C(=O)N[C@@H](CCCNC(=N)N)C(=O)N[C@@H](C)C(=O)NCC(N)=O)C(C)C [SHP-1.3, LCA-LVKRAG-NH2] (Lithocholoyl-LVKRAG-NH2) N / > 100.0 µg/mL

Then this molecule: CCCCCCCCCCCCCCCC(=O)NCC(=O)N[C@H](C(=O)N[C@@H](CC(C)C)C(=O)N[C@@H](CCCCN)C(=O)N[C@@H](CCCNC(=N)N)C(=O)N[C@@H](C)C(N)=O)C(C)C [SHP-3.2, PAL-GVLKRA-NH2] (Palmitoyl-GVLKRA-NH2) 100.0 µg/mL

Others:
Tell me the measured IC50 of CC(C)C[C@H](NC(=O)CC[C@@H](C)[C@H]1CC[C@H]2[C@@H]3CC[C@@H]4C[C@H](O)CC[C@]4(C)[C@H]3CC[C@]12C)C(=O)N[C@H](C(=O)N[C@@H](CCCCN)C(=O)NCC(=O)N[C@@H](C)C(=O)N[C@@H](CCCNC(=N)N)C(N)=O)C(C)C [SHP-2.3, LCA-LVKGAR-NH2] (Lithocholoyl-LVKGAR-NH2) , please. N / > 100.0 µg/mL

# credit: paper PMC11003925
